system: PPARg DBDmut IVT, anti-PPARg (DBD mutation: PPARg1 K132A/R137A, NR concentration 270 nM); experiment: PBM binding z-score (relative to random genomic background probes); higher = stronger binding; sequences stand for … in GC…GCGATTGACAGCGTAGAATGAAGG
Each entry falls into one class according to its PBM binding z-score; the ranges are low group: < -0.2; middle group: ≥ -0.2 and < 0.2; high group: ≥ 0.2

Answered cases to consult:
>>> classification("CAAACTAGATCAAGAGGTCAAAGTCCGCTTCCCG")
"middle group"
>>> classification("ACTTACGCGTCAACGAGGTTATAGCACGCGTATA")
"middle group"
>>> classification("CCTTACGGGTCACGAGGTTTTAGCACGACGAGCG")
"high group"

Sort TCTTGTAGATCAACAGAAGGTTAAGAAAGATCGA into one of the categories. middle group

Any idea which band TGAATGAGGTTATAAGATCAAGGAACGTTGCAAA is in? high group

Band for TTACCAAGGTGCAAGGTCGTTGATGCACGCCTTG ? middle group

Where would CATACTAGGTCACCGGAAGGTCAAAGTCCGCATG land among the classes by reported PBM binding z-score? high group

Form field 'band' for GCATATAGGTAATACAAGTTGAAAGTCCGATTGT high group

Looking at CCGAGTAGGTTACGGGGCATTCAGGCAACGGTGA , which class would you pick? low group

Note: place this sequence into its band. Item: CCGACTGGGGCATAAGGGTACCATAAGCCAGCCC low group

Which PBM binding z-score band matches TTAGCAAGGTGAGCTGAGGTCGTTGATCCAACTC ? low group

Kindly state the category for this sequence: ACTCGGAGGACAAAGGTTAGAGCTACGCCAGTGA middle group

---

system: FXR:RXRa (NR concentration 270 nM, RXRa partner concentration 90 nM); assay: PBM binding z-score (relative to random genomic background probes); higher = stronger binding; sequences stand for … in GC…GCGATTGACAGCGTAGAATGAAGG
ENDPOINT LABEL: PBM binding z-score
Write the value as a bare number.

>>> observed_measurement("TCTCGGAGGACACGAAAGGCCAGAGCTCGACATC")
0.554
>>> observed_measurement("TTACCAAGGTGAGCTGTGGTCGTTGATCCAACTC")
0.0539
>>> observed_measurement("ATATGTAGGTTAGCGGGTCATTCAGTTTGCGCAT")
2.01

Return value of PBM binding z-score for input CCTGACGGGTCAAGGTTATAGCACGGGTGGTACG , no commentary. 4.36

Give PBM binding z-score for the following sequence: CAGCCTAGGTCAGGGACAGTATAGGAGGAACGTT 1.72

Write down PBM binding z-score measured for item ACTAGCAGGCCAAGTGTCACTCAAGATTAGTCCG -0.202

State, in one line, measured PBM binding z-score of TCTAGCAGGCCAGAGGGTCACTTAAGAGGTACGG 1.18

Output PBM binding z-score of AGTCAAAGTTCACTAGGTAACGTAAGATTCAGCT 5.37

Give reported PBM binding z-score value for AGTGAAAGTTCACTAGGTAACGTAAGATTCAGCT 4.44

Give the reported PBM binding z-score for this sequence. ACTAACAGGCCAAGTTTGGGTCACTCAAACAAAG 0.517

Identify measured PBM binding z-score associated with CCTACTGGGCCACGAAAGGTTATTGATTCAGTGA 0.471

Provide only the value of recorded PBM binding z-score for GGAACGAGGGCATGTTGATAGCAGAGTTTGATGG 0.438

---

tested on: RARa homodimer (NR concentration 270 nM); assay: PBM binding z-score (relative to random genomic background probes); higher = stronger binding; sequences stand for … in GC…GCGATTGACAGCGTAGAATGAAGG
ENDPOINT LABEL: PBM binding z-score
// return just the number, without any unit appended

// worked examples, PBM binding z-score included
>>> observed_measurement("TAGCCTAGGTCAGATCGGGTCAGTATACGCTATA")
-0.275
>>> observed_measurement("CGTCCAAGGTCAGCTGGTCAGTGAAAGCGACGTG")
1.47
>>> observed_measurement("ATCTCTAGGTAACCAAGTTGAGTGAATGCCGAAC")
0.0193

Retrieve PBM binding z-score on RARa homodimer (NR concentration 270 nM); query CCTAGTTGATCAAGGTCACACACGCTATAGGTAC 2.05

Please report PBM binding z-score with RARa homodimer (NR concentration 270 nM) for item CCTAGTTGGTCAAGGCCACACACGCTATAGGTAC . 0.796

GET PBM binding z-score | system: RARa homodimer (NR concentration 270 nM) | item: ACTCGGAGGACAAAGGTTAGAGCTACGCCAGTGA 0.397

Provide the reported PBM binding z-score (system: RARa homodimer (NR concentration 270 nM)) for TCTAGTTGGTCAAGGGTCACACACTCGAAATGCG 2.83

Report value only: PBM binding z-score, RARa homodimer (NR concentration 270 nM), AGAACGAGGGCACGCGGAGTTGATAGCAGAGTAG -0.653

State recorded PBM binding z-score with RARa homodimer (NR concentration 270 nM), entry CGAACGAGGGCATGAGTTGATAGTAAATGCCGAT , no comment. -0.245

For RARa homodimer (NR concentration 270 nM), give PBM binding z-score of the listed sequence: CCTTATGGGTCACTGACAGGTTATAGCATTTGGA 0.956

Answer with PBM binding z-score of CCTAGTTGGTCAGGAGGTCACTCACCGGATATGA measured for RARa homodimer (NR concentration 270 nM). 2.42

Tell me PBM binding z-score of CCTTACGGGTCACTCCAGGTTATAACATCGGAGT when tested on RARa homodimer (NR concentration 270 nM). -0.23

---

tested on: LXRb homodimer (NR concentration 270 nM); assay: PBM binding z-score (relative to random genomic background probes); higher = stronger binding; sequences stand for … in GC…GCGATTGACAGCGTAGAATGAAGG
ENDPOINT LABEL: PBM binding z-score

>>> observed_measurement("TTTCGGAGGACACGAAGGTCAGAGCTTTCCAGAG")
-0.442
>>> observed_measurement("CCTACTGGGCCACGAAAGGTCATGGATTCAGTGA")
0.209
>>> observed_measurement("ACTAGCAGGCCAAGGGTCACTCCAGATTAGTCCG")
-0.313
>>> observed_measurement("CCTACTGGGTCAAGGTCATTGATCAGTCAAAGCA")
0.0227
>>> observed_measurement("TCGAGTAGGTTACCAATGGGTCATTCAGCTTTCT")
-0.601

Let's switch to this sequence now.
Assign PBM binding z-score to the following record: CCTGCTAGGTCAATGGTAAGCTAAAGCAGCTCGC -0.205

---

test system: PPARg homodimer (NR concentration 180 nM); experiment: PBM binding z-score (relative to random genomic background probes); higher = stronger binding; sequences stand for … in GC…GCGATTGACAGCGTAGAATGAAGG
Please mark label 1 if the recorded PBM binding z-score is equal to or greater than 0.7, and label 0 if it falls below.

>>> classification("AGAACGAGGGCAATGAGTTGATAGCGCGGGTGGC")
"label 0"

Decide: is the reported value of PBM binding z-score for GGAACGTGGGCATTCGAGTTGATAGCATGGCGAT equal to or greater than 0.7? label 0

---

tested on: RXRa DBDmut IVT, anti-RXR (DBD mutation: RXRa K156A/R161A, NR concentration 90 nM); experiment: PBM binding z-score (relative to random genomic background probes); higher = stronger binding; sequences stand for … in GC…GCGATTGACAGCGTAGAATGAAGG
# label = True if PBM binding z-score >= 1 else False

>>> classification("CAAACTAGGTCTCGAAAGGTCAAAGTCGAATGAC")
"True"

# input for lookup
# bool: PBM binding z-score of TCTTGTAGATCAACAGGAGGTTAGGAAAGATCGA >= 1 False

---

test system: PPARg DBDmut IVT, anti-PPARg (DBD mutation: PPARg1 K132A/R137A, NR concentration 270 nM); test: PBM binding z-score (relative to random genomic background probes); higher = stronger binding; sequences stand for … in GC…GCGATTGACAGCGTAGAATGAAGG
ENDPOINT LABEL: PBM binding z-score
Give a plain numeric answer without units written out.

Some solved entries appear below for comparison.
>>> observed_measurement("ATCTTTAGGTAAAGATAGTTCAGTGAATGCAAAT")
1.16
>>> observed_measurement("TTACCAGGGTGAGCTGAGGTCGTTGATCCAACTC")
-0.726
>>> observed_measurement("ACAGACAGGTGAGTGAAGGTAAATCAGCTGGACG")
0.0853

Give reported PBM binding z-score value for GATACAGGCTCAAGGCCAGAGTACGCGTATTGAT -1.16

Fill in PBM binding z-score for record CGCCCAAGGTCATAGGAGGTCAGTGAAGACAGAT -0.0436

Provide one value: measured PBM binding z-score of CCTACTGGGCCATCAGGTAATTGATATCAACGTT 0.313
